- Test system: P388 leukemia ip, CD2F1 mice, survival T/C
- assay_explanation: NCI In Vivo Anticancer Drug Screen. Data for tumor model P388 Leukemia (intraperitoneal) in CD2F1 (CDF1) mice
- particulars: endpoint: median survival time; dose: 240.0 mg/kg/injection; schedule: Q01DX005 (ip); vehicle: saline with Tween-80; higher = longer survival
Toxic doses and inconclusive results are not listed.
test_readout: T/C

Please review the following examples before continuing.
compound | T/C
NC(N)=NC(=O)COc1ccc(Cl)cc1Cl | 114 % of control
COC1SCCn2c1nc1ccccc1c2=O (configuration not stated) | 99 % of control
CCOC(CCC1(C)C(=O)CCC1=O)(OCC)OCC | 99 % of control

Read the entry O=C(NN1C(=O)CSC1c1ccc(F)cc1)c1ccncc1 (configuration not stated) and write its reported T/C. 92 % of control

Tell me measured T/C for "CCCCCc1nnc2n1N=C(c1ccc(Cl)cc1)CS2" please. 91 % of control

Return value of T/C for input "COC(=O)c1cc(-c2ccc(Cl)c(Cl)c2)[nH]c(=O)c1C#N" , no commentary. 94 % of control

Provide measured T/C value, entry: "C[C@@]12CCCC[C@@H]1Nc1ccccc12" 97 % of control

Output measured T/C for this item: "CC1=CC(C)(C)Nc2ccc(Cc3ccc4c(c3)C(C)=CC(C)(C)N4)cc21" 95 % of control
